Target: Plx2A (Paenibacillus larvae, UniProt M9V3B7)
API: label(entry) gives Y if the entry's Kd is strictly smaller than 30 µM; on equality or larger values it gives N.

## Input Below 30 µM on Kd? Entry COc1cc(-c2cc(=O)c3c(O)c(OC)c(O)cc3o2)ccc1O
## Output Y

## Input Below 30 µM on Kd? Entry O=c1c(O)c(-c2ccc(O)cc2O)oc2cc(O)cc(O)c12
## Output N

## Input Below 30 µM on Kd? Entry O=c1cc(-c2ccc(O)c(O)c2)oc2cc(O)cc(O)c12
## Output Y

## Input Below 30 µM on Kd? Entry O=c1cc(-c2ccccc2)oc2cc(O)cc(O)c12 [Chrysin, 5,7-dihydroxy-2-phenyl-4H-chromen-4-one]
## Output N

## Input Below 30 µM on Kd? Entry O=c1c(O)c(-c2ccc(O)cc2)oc2cc(O)cc(O)c12
## Output N

## Input Below 30 µM on Kd? Entry O=c1c(O)c(-c2ccc(O)c(O)c2)oc2cc(O)cc(O)c12
## Output Y

----------
Target: Plx2A (Paenibacillus larvae, UniProt M9V3B7)
pIC50: −log10 of the molar value.
Note to self: values exactly at 4 are rule met. So pIC50 at or above 4 is rule met, below is rule not met.

## Input Item COc1cc(-c2cc(=O)c3c(O)c(OC)c(O)cc3o2)ccc1O [Jaceosidin] with pIC50 of 4 or above?
## Output rule met

## Input Item O=c1c(O)c(-c2ccc(O)c(O)c2)oc2cc(O)cc(O)c12 [Quercetin] with pIC50 of 4 or above?
## Output rule met

## Input Item CS(=O)(=O)NC[C@@H]1CCCN(c2ncnc3[nH]ncc23)C1 [Inhibitor M3] with pIC50 of 4 or above?
## Output rule not met

## Input Item O=c1cc(-c2ccccc2)oc2cc(O)cc(O)c12 [Chrysin, 5,7-dihydroxy-2-phenyl-4H-chromen-4-one] with pIC50 of 4 or above?
## Output rule met

## Input Item O=c1cc(-c2ccc(O)c(O)c2)oc2cc(O)cc(O)c12 [Luteolin] with pIC50 of 4 or above?
## Output rule met

----------
Biological target: Plx2A (Paenibacillus larvae)
property measured: Ki (µM)
Hi! Could you send only the number? It should be in µM, unit omitted.

## Input # return Ki for O=c1c(O)c(-c2ccc(O)c(O)c2)oc2cc(O)cc(O)c12 [Quercetin] , test system: Plx2A (Paenibacillus larvae)
## Output 18

Data provenance: paper PMC8704661
